System Name: human ether-à-go-go-related gene (hERG) potassium channel (human, UniProt Q12809)
Sequence (Q12809 whole entry, looked up): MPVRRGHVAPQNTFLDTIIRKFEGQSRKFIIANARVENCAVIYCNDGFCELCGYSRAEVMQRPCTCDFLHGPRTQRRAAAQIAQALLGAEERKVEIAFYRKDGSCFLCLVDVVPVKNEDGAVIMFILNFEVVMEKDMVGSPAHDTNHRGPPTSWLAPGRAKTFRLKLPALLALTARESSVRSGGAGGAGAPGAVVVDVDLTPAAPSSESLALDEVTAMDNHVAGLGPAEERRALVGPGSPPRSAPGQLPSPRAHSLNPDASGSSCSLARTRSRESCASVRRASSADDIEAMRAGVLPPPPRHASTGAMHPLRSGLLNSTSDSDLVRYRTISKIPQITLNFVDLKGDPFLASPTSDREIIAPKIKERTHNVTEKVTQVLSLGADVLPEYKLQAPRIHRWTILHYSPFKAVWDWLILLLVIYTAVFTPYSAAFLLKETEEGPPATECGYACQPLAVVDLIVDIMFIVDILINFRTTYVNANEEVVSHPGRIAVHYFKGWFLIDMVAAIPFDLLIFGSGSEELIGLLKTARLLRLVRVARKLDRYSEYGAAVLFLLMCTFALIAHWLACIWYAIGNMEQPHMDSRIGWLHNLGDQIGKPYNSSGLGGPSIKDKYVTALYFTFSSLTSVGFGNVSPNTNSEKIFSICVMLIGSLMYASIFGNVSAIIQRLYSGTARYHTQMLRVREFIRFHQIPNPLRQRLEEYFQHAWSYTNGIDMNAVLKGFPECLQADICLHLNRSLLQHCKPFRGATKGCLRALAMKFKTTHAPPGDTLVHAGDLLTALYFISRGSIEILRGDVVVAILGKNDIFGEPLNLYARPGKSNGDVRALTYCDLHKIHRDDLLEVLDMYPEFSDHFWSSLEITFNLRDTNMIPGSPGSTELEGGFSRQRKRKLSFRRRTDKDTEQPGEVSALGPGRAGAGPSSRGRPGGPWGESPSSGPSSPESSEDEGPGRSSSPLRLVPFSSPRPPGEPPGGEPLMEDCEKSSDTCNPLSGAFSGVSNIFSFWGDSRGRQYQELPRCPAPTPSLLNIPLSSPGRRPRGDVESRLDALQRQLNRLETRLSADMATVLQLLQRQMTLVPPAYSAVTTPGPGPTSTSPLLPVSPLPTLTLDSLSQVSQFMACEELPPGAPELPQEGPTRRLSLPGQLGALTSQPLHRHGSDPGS
Method Summary: primary screen, population patch clamp on CHO cells stably expressing hERG; higher = less effect of the substance
Text: Briefly, Chinese hamster ovary (CHO) cells stably expressing the hERG channel were dislodged from tissue culture flasks and dispensed into PPC plates. […] Small molecule effects on hERG current density were quantified by […].
Screen size: about 310,000 compounds; about 2,200 (0.71%) showed an effect of 50% or more. Effects have a minus sign here. This excerpt belongs to a sample that is enriched for strong results.
Parameter: hERG current change (%, negative = inhibition) at 1uM (%)
Report only the number, with the unit % understood.

Examples with answers:
{"Compound Smiles": "COc1ccc(NC(=O)CSc2nnc(Cc3ccc(C)cc3)c(=O)n2N)cc1OC", "Endpoint Result": 4}
{"Compound Smiles": "CCCCn1nnc(NC(=O)C(c2ccccc2)c2ccccc2)n1", "Endpoint Result": 11.2}

We now examine a further compound.
Ask: Query (compound): CCN(CCn1cccn1)C(=O)c1cc(COc2ccc(F)c(F)c2)on1 ; field requested: hERG current change (%, negative = inhibition) at 1uM
Result: -27.1

* * *

System Name: human ether-à-go-go-related gene (hERG) potassium channel (human)
Method Summary: primary screen, population patch clamp on CHO cells stably expressing hERG; higher = less effect of the substance
Out of some 310,000 compounds screened, about 2,200 (0.71%) showed an effect of 50% or more. Effects have a minus sign here. The list comes from a sample in which strong results are over-represented; it also holds close analogues and randomly drawn compounds.
// values below are reported hERG current change (%, negative = inhibition) at 1uM
Report only the number, with the unit % understood.

Examples with answers:
{"Compound": "Cn1cc(S(=O)(=O)N2CCC(C(N)=O)CC2)c(=O)n(C)c1=O", "Endpoint Result": 11}
{"Compound": "O=C(CSc1nc2[nH]c(=O)cc(O)c2s1)Nc1cccc(Br)c1", "Endpoint Result": 18.8}
{"Compound": "Cc1cc(C)nc(N2CCC(C(=O)NC3CCCCCC3)CC2)n1", "Endpoint Result": 0.0346}
{"Compound": "O=C(Cn1c(=O)oc2ccccc21)Nc1ccc(Br)cc1", "Endpoint Result": 12.5}
{"Compound": "O=C(/C=C/c1cccc(F)c1)NC1CCN(Cc2ccccc2)CC1", "Endpoint Result": -51.4}
{"Compound": "Cl.O=C(NC(=S)NC1CCN(Cc2ccccc2)CC1)c1ccc(F)cc1", "Endpoint Result": -57.5}
{"Compound": "O=C(NC1CCN(Cc2ccc(F)cc2)CC1)c1ccccc1", "Endpoint Result": -15.9}
{"Compound": "CN1CCN(c2ccc(S(=O)(=O)N3CCCCC3)cc2NC(=O)Cc2ccc(Cl)cc2)CC1", "Endpoint Result": -50.6}
{"Compound": "CC(=O)N1CCN(c2ccccc2NC(=O)Cc2ccc(Cl)cc2)CC1", "Endpoint Result": -17.2}
{"Compound": "O=C(CC1OC(=O)c2ccccc21)Nc1cc(Cl)ccc1N1CCCC1 (centres unmarked)", "Endpoint Result": 8.82}

Ask: Query (compound): COc1ccccc1C1CCN(Cc2ccc(C)cc2)CC1 ; field requested: hERG current change (%, negative = inhibition) at 1uM
Result: -61.2

* * *

System Name: human ether-à-go-go-related gene (hERG) potassium channel (human, UniProt Q12809)
Method Summary: primary screen, population patch clamp on CHO cells stably expressing hERG; higher = less effect of the substance
Screen size: about 310,000 compounds; about 2,200 (0.71%) showed an effect of 50% or more. The effect is printed as a negative number. This is one part of a sample in which strong results are shown more often than they occur.
// values below are reported hERG current change (%, negative = inhibition) at 1uM
Report only the number, with the unit % understood.

Examples with answers:
{"Molecule": "Cc1ccc(C)c(N/C(N)=N/c2nc(C)cc(C)n2)c1", "System Name": "human ether-à-go-go-related gene (hERG) potassium channel (human, UniProt Q12809)", "Endpoint Result": -8.3}
{"Molecule": "COc1cc(CNC(=O)CCCC/C=C/C(C)C)ccc1O", "System Name": "human ether-à-go-go-related gene (hERG) potassium channel (human, UniProt Q12809)", "Endpoint Result": 11.8}

Ask: Query (molecule): COc1ccc(Cl)cc1N/C(N)=N/c1nc(C)cc(C)n1 ; field requested: hERG current change (%, negative = inhibition) at 1uM
Result: -79.1

Ask: Query (molecule): COc1ccccc1CN1CCCC(C(=O)c2ccccc2SC)C1 (stereo not shown) ; field requested: hERG current change (%, negative = inhibition) at 1uM
Result: -27.3
